Target: monoclonal antibody MV-003
Assay: ELISA, peptide-BSA coated, MV-003
Conditions: scale: code
Overview of recorded Binding Capacity for various binders

{"BINDER": "IRWDTSLC [p4728]", "Binding Capacity": 3}
{"BINDER": "IRWDTPC [p4395]", "Binding Capacity": 2}
{"BINDER": "IRWDQPC [p4756]", "Binding Capacity": 3}
{"BINDER": "IRWDGGC [p4793]", "Binding Capacity": 2}
